# Test system: NCI-H23 lung
# assay protocol: NCI tumour cell line growth inhibition, 48 h
quantity kind: TGI

Qu. I have this compound here, O=C(CC(=O)Nc1ccccc1Cl)NNC(c1cc(N=Nc2ccc(Br)cc2)ccc1O)P(O)O (stereo not given) , and I need its recorded TGI.
Ans. > 10 µM

Qu. Then what about the compound COc1ccc2c(c1)O[C@@H]1c3ccc(OC)cc3OC[C@H]21 ?
Ans. > 100 µM

Qu. Then what about the compound O=C(Nc1cccc(C(F)(F)F)c1)C(=O)C(C(=O)c1ccc2ccccc2c1)C1OC(=O)c2ccccc21 (stereo not given) ?
Ans. 17.7 µM

Qu. Then what about the compound C/C(=N\NC(=S)NCCNC(=S)N/N=C(\C)c1ccccn1)c1ccccn1 ?
Ans. > 63.8 µM

Qu. Then what about the compound O=C1/C(=C/c2ccc3c(c2)CCC3)Cc2cc3c(cc21)CCC3 ?
Ans. > 100 µM

---

# System: HOP-62 NSCLC
# assay protocol: NCI tumour cell line growth inhibition, 48 h; in the data active = GI50 below about 0.43 µM; inactive = the rest
Give one outcome, nothing more. List: active, inactive

Qu. Given COc1cc2c3c(n(CCCN=[N+]=[N-])c(=O)c2cc1OC)-c1ccc(C#N)cc1C3=O , state the outcome it received in this test.
Ans. inactive

Qu. Then what about the compound Cc1cccc(NC(=O)c2sc3nc4c(cc3c2N)CCCC4)c1 ?
Ans. inactive

Qu. Then what about the compound COc1cc(CC(C)C(C)Cc2ccc(O)c(OC)c2)ccc1O (stereo not drawn) ?
Ans. inactive

Qu. Then what about the compound CC(C)(O)c1coc(S(=O)(=O)/N=C(\O)Nc2c3c(cc4c2CCC4)CCC3)c1 ?
Ans. inactive

Qu. Then what about the compound O=C1OCC2=C1C(c1cccc(F)c1)c1cc3c(cc1N2CCO)CCC3 (stereo not drawn) ?
Ans. inactive

Qu. Then what about the compound Nc1nc(-c2cccc3ccccc23)cc2ccccc12 ?
Ans. inactive

Qu. Then what about the compound COc1cc(C(=O)/C=C/c2c(-c3cccs3)nc3sc(C)cn23)cc(OC)c1OC ?
Ans. inactive

Qu. Then what about the compound COC1C(CO)OC(n2c3ccccc3c3c4c(c5c6ccccc6[nH]c5c32)C(=O)NC4=O)C(OC(=O)C(N)CCCCN)C1O (stereo not drawn) ?
Ans. active

---

# Test system: OVCAR-8 ovarian
# assay protocol: NCI tumour cell line growth inhibition, 48 h
quantity kind: TGI

Qu. For the record CN(C)CCNC(=O)c1ccc(Cl)c2c(Nc3ccc(S(=O)(=O)N=C(N)N)cc3)c3ccccc3nc12 , what value of TGI is listed for OVCAR-8 ovarian?
Ans. 15.2 µM

Qu. Then what about the molecule CC(=O)Nc1ccc(-c2csc(Nc3ccc(-c4csc(-c5ccccc5)n4)cc3)n2)cc1 ?
Ans. > 50 µM

Qu. Then what about the molecule CCN(CC)c1ccc(N=O)cc1 ?
Ans. 12.3 µM

Qu. Then what about the molecule O=c1c2cc(I)ccc2nc(-c2cccs2)n1-c1ccc(S(=O)(=O)Nc2nccs2)cc1 ?
Ans. 98 µM

Qu. Then what about the molecule CCN1CCN(c2cc(C)nc(N(CCCNc3ccnc4cc(Cl)ccc34)Cc3cccs3)n2)CC1 ?
Ans. 10.9 µM

Qu. Then what about the molecule COc1ccc2c(c1)CC1Cc3cc(OC)c(OC)cc3CN1CC2 (configuration not stated) ?
Ans. > 100 µM

Qu. Then what about the molecule COc1ccc2c(c1)N(CCO)C1=C(C(=O)OC1)C2c1cc(OC)c(OC)c(OC)c1 (configuration not stated) ?
Ans. 0.181 µM

Qu. Then what about the molecule O=C(OC(CNc1c(C(=O)c2ccccc2)c(=O)n(Cc2ccccc2)c(=O)n1Cc1ccccc1)CN1CCOCC1)c1ccccc1 (configuration not stated) ?
Ans. > 100 µM

Qu. Then what about the molecule O=C1C=CC(=O)c2c1c1c(c3c2C2c4ccccc4C3c3ccccc32)C2c3ccccc3C1c1ccccc12 ?
Ans. 2.94 µM

Qu. Then what about the molecule Nc1ncnc2oc(-c3cccs3)nc12 ?
Ans. > 100 µM

Qu. Then what about the molecule Cc1nc(-c2nc(C)c(C(=O)/C=C/c3ccc(N(C)C)cc3)s2)sc1C(=O)/C=C/c1ccc(N(C)C)cc1 ?
Ans. > 100 µM

Qu. Then what about the molecule CC[C@]12C=CCN3CC[C@]4(C(=C(C(=O)OC)C1)Nc1cc(OC)c(OC(C)=O)cc14)[C@@H]32 ?
Ans. > 100 µM

Qu. Then what about the molecule CCOC(=O)C=C1CCC2(CC1)OCCO2 ?
Ans. > 100 µM

Qu. Then what about the molecule CN(O)C(=O)c1ccccc1 ?
Ans. > 100 µM

Qu. Then what about the molecule O=S(=O)(O)c1ccc(N=Nc2ccc(N=Nc3c(O)ccc4cc(S(=O)(=O)O)ccc34)cc2)cc1 ?
Ans. > 100 µM

Qu. Then what about the molecule NC(N)=NS(=O)(=O)c1ccc(NC(=O)c2cccc3c(NNc4ccc(C(=O)O)cc4)c4ccccc4nc23)cc1 ?
Ans. > 100 µM

Qu. Then what about the molecule Cc1ccnc(NS(=O)(=O)c2ccc(NC3=CC(=O)C(=O)c4ccccc43)cc2)n1 ?
Ans. > 100 µM

Qu. Then what about the molecule CCOC1=CP(=O)(OCC)CC(C)=C1Cl (configuration not stated) ?
Ans. > 100 µM

Qu. Then what about the molecule CC(=O)OC1C[C@@H](C)C2(C[C@H](O)c3ccoc3)C(=O)OC[C@]13C2CCC(O)C31CO1 (some centres not stated) ?
Ans. > 100 µM

Qu. Then what about the molecule COc1cc2c3c(n(CCCN=[N+]=[N-])c(=O)c2cc1OC)-c1ccc(C#N)cc1C3=O ?
Ans. > 100 µM

Qu. Then what about the molecule COc1ccc(C2=NN(C(=O)c3ccc(Cl)cc3)C(O)(c3cc(F)c(Cl)cc3Cl)C2)cc1OC (configuration not stated) ?
Ans. > 100 µM

Qu. Then what about the molecule CCN(C1=CC(=O)NC2CCCCN12)c1ccccc1 (configuration not stated) ?
Ans. > 100 µM

Qu. Then what about the molecule Cn1nc(-c2cccs2)cc1/N=C(\N)C(C)(C#N)Cc1ccccc1 (configuration not stated) ?
Ans. 98.7 µM

Qu. Then what about the molecule C=C(C)[C@@H]1CC[C@]2(CNCCO)CC[C@]3(C)[C@H](CC[C@@H]4[C@@]5(C)CCC(N)[C@@](C)(CO)[C@@H]5CC[C@]43C)[C@@H]12 (some centres not stated) ?
Ans. 3.39 µM

Qu. Then what about the molecule COc1cc2c(cc1O)N=C[C@@H]1C[C@@H](F)CN1C2=O ?
Ans. 13.9 µM

Qu. Then what about the molecule O=C(O)/C=N/NC(=S)NC1CCCCC1 ?
Ans. > 100 µM

Qu. Then what about the molecule C/C(=N\N(C)C)C(CN1CCCCC1)C(c1ccccc1)c1c(O)c2ccccc2oc1=O (configuration not stated) ?
Ans. > 100 µM

Qu. Then what about the molecule Cc1ccc(C(=O)Nc2ccc(S(=O)(=O)O)c3cc(S(=O)(=O)O)cc(S(=O)(=O)O)c23)cc1NC(=O)Nc1cc(C(=O)Nc2ccc(S(=O)(=O)O)c3cc(S(=O)(=O)O)cc(S(=O)(=O)O)c23)ccc1C ?
Ans. > 87.5 µM

Qu. Then what about the molecule COc1c(Br)cc(Br)c(OC)c1-c1ccc[nH]1 ?
Ans. > 100 µM

Qu. Then what about the molecule C[C@H](CCC(=O)NN)[C@H]1CC[C@H]2[C@@H]3CC[C@@H]4C[C@H](O)CC[C@]4(C)[C@H]3CC[C@]12C ?
Ans. > 100 µM

Qu. Then what about the molecule O=C1/C(=C/c2ccc3c(c2)CCC3)Cc2cc3c(cc21)CCC3 ?
Ans. > 100 µM

Qu. Then what about the molecule O=P(O)(OP(=O)(O)c1ccccc1)c1ccccc1 (tested in a mixture with another compound) ?
Ans. > 100 µM

Qu. Then what about the molecule Nc1ccc2c(c1)Cc1cc(Cl)c(Cl)cc1-2 ?
Ans. > 100 µM

Qu. Then what about the molecule O=[N+]([O-])C(=C1NCCN1)/C(Cl)=C(/Cl)N1CCOCC1 ?
Ans. > 100 µM

Qu. Then what about the molecule O=C(Nc1ccn(C2CC(O)C(CO)O2)c(=O)n1)c1ccccc1 (configuration not stated) ?
Ans. > 100 µM

Qu. Then what about the molecule COC(=O)[C@@]12OC[C@]34[C@H]([C@@H](O)[C@@H]1O)[C@@]1(C)CC(=O)C(OC(C)=O)=C(C)[C@@H]1C[C@H]3OC(=O)[C@H](OC(=O)C=C(C)C)[C@@H]24 ?
Ans. 2.54 µM

Qu. Then what about the molecule CCOc1cc(NC(C)=O)ccc1C(=O)NN1C(=O)/C(=C/c2ccco2)N=C1c1ccccc1 ?
Ans. > 100 µM

---

# Tested on: SF-295 CNS
# assay protocol: NCI tumour cell line growth inhibition, 48 h
quantity kind: TGI

Qu. For the record O=C(OC(CNc1c(C(=O)c2ccccc2)c(=O)n(Cc2ccccc2)c(=O)n1Cc1ccccc1)CN1CCOCC1)c1ccccc1 (centres undefined) , what value of TGI is listed for SF-295 CNS?
Ans. > 100 µM

Qu. Then what about the compound COc1cc(C2c3cc4c(cc3OC(N3CCCCC3)C2C)OCO4)cc(OC)c1OC (centres undefined) ?
Ans. 5.77 µM

Qu. Then what about the compound COc1ccc(C2=C(c3cn(C)c4ccccc34)C(=O)NC2=O)cc1 ?
Ans. > 25 µM

Qu. Then what about the compound CN(C)c1ccc(-c2[nH]c(=O)c3ccccc3[n+]2C)cc1 ?
Ans. > 100 µM

Qu. Then what about the compound COc1nc(NC2OC(COC(C)=O)C(OC(C)=O)C(OC(C)=O)C2OC(C)=O)c(N=CC=Nc2c(NC3OC(COC(C)=O)C(OC(C)=O)C(OC(C)=O)C3OC(C)=O)nc(OC)n(C)c2=O)c(=O)n1C (centres undefined) ?
Ans. > 100 µM

Qu. Then what about the compound COc1cccc2c1C(=O)c1c(O)c3c(c(O)c1C2=O)CC(O)(C(O)CO)CC3OC1CC2C(OC3COCC(C#N)N32)C(C)O1 (centres undefined) ?
Ans. > 100 µM

Qu. Then what about the compound C=C(Br)CN(C)CC(=C)Br ?
Ans. > 100 µM

Qu. Then what about the compound Cc1cc(OCc2n[nH]c(=S)n2/N=C/c2ccc(F)cc2)ccc1Cl ?
Ans. > 100 µM

Qu. Then what about the compound CC1=C(SCCC(=O)OCC(=O)NCCC[Te]c2ccccc2)C(=O)c2ccccc2C1=O ?
Ans. 4.24 µM
